So I've got a bunch of binders here, and I need their koff values.
# tested_target: T1, human immunoglobulin E (hIgE) (human, UniProt P01854-1 1-428)
# T1 construct: also called human IgE; Native IgE (Abcam)
# T1 sequence (P01854 whole entry): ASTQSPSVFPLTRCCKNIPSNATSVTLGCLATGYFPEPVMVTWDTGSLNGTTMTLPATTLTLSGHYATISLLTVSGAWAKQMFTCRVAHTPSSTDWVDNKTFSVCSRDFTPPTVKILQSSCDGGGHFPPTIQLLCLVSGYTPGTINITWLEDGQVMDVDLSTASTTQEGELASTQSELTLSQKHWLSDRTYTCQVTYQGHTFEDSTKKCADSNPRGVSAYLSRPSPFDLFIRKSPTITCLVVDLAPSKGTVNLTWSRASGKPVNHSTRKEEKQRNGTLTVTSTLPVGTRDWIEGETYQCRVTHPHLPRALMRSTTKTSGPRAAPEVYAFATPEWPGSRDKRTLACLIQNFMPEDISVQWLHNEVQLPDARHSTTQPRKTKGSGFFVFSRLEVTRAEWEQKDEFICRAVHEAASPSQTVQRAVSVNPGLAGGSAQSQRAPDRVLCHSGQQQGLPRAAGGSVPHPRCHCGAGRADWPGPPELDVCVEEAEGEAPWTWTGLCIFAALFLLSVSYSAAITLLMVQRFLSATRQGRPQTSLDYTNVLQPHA
# assay_text: SPR (Biacore), pH 6.0
Number in s⁻¹, nothing else.

Prompt line: Param item = Oma VH15W100b - VL3D28H (antibody, V domains shown, also called Oma VH15W100b VL3D25H) VH: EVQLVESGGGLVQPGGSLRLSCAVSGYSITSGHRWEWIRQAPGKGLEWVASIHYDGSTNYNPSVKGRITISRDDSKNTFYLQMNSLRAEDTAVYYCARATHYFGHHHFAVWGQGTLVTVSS VL: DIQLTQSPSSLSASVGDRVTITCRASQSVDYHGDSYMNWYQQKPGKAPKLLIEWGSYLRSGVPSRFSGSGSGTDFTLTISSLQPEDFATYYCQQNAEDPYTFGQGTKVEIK ; retrieve measured koff.
Response line: 0.0148

Prompt line: Param item = OMA VH15 - VL3D28H (antibody, V domains shown, also called OMA VH15 VL3D25H) VH: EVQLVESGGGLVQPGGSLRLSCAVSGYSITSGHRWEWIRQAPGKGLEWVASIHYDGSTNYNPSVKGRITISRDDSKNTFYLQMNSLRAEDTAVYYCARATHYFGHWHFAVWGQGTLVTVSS VL: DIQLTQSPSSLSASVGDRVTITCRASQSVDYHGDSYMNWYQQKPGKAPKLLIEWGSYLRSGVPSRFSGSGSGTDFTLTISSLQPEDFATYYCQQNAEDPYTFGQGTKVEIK ; retrieve measured koff.
Response line: 0.000736

Prompt line: Param item = OMA VH15 - VL3D28HS31H (antibody, V domains shown) VH: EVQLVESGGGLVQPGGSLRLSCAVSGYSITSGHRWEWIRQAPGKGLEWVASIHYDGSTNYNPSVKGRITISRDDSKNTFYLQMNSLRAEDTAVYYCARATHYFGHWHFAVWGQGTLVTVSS VL: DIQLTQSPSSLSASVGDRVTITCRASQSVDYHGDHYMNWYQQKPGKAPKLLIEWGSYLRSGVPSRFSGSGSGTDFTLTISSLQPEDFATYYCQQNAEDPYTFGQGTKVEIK ; retrieve measured koff.
Response line: 0.00398
